Where do the numbers come from? From PubChem BioAssay (NCI).

- System: SF-295 CNS
- method: NCI-60 one-dose screen, 48 h (100 = growth as untreated, 0 = no growth, -100 = all killed)
- experimentalParameters: 10 µM unless noted
About 83,000 compounds went through this panel and 20% of them were active in at least one assay; those are over-represented in the sample as a whole. The source made the active and inactive calls. The calls were made as follows: active = growth percent below 10; inactive = the rest.

compound	growth
CCCn1c(N)c(C(=O)CNc2ccc(I)cc2)c(=O)[nH]c1=O	54.2% (inactive)
CCC(C)C1NC(=O)C(CCNCS(=O)(=O)O)NC(=O)C(NC(=O)C(CCNCS(=O)(=O)O)NC(=O)C(NC(=O)C(CCNCS(=O)(=O)O)NC(=O)CCCCC(C)C)C(C)O)CCNC(=O)C(C(C)O)NC(=O)C(CCNCS(=O)(=O)O)NC(=O)C(CCNCS(=O)(=O)O)NC(=O)C(C(C)CC)NC1=O (centres undefined)	86.6% (inactive)
Cc1[nH]c(=O)[nH]c(=O)c1CCSSCCc1c(C)[nH]c(=O)[nH]c1=O	98.4% (inactive)
O=C(CC1Sc2ccccc2NC1=O)NNc1cccc(Cl)c1Cl (centres undefined)	92.4% (inactive)
CCCCCCCC[Si](OCC)(OCC)OCC	111% (inactive)
Cc1ccc(C(=O)Cc2ccccc2)c(O)c1	107% (inactive)
O=C1CNc2cc(Cl)ccc2N1	105% (inactive)
O=c1oc2c(cc1-c1ccc([N+](=O)[O-])cc1)C(O)Oc1ccccc1-2 (centres undefined)	67.9% (inactive)
O=C(Nc1ccc(Cl)cc1)Nc1nc2ccc(OC(F)(F)F)cc2o1	70.1% (inactive)
